Test system: PC-3 cells
Experiment description: Cell Proliferation Assay (Cell Titer Glo), PC-3 cell line
Type: cell-based
Applied conditions: Homo sapiens, PC-3, PC3 cells; read-out: CPEC50 PC3
Measurement label: EC50

Checklist item: EC50 tested on PC-3 cells, entry CN1CCN(c2ccc(-c3cccc4cnc(Nc5ccc(S(=O)(=O)N6CCOCC6)cc5)nc34)cn2)CC1 [Compound 1029] , value?
< 5 µM

EC50 of CC(=O)Nc1ccc(Nc2ncc3cccc(-c4ccc(NCCN5CCCC5)nc4)c3n2)cc1Cl [Compound 1024] on PC-3 cells?
< 5 µM

Under PC-3 cells: EC50 value of CC(C)N1CCC(Oc2cccc3cnc(Nc4ccc(N5CCOCC5)cc4)nc23)CC1 [Compound 968] ?
< 5 µM

Could you share what EC50 was measured for CC(C)NCc1cncc(-c2cccc3cnc(Nc4ccc(S(N)(=O)=O)cc4)nc23)c1 [Compound 946] , tested on PC-3 cells?
< 5 µM

Lookup: EC50 / PC-3 cells / c1cc(Nc2ncc3cccc(-c4ccc(NCCN5CCCC5)nc4)c3n2)cc(N2CCOCC2)c1 [Compound 1022]
< 5 µM

GET /values?readout=EC50&system=PC-3 cells&item= CC(=O)Nc1ccc(Nc2ncc3ccc(OC4CCNCC4)cc3n2)cc1C [Compound 1014]
< 5 µM

Recorded EC50 for CN(C)[C@H]1CCN(c2ccc(-c3cccc4cnc(Nc5ccc(S(N)(=O)=O)cc5)nc34)cn2)C1 [Compound 952] with PC-3 cells, please?
< 5 µM

Requested read-out EC50, target or system PC-3 cells, entry CC(C)NCCCNc1ccc(-c2cccc3cnc(Nc4ccc(S(N)(=O)=O)cc4)nc23)cn1 [Compound 971]
< 5 µM

Quick check: EC50 on PC-3 cells, item CC(C)NS(=O)(=O)c1ccc(Nc2ncc3ccc(OC4CCN(C(C)C)CC4)cc3n2)cc1 [Compound 961] ?
< 5 µM

Quick check: EC50 on PC-3 cells, item NS(=O)(=O)c1ccc(Nc2ncc3cccc(-c4cncc(CN5CCCC5)c4)c3n2)cc1 [Compound 941] ?
< 5 µM

# value lookup — system PC-3 cells, readout EC50, item CC(C)NC(=O)Cc1cccc(Nc2ncc3cccc(OC4CCN(C(C)C)CC4)c3n2)c1 [Compound 1005]
< 5 µM

Look up EC50 with PC-3 cells for this molecule: Nc1cc(C(F)(F)F)c(-c2ccc3cnc(Nc4ccc(S(N)(=O)=O)cc4)nc3c2OC2CCNCC2)cn1 [Compound 934]
< 5 µM

Find EC50 (PC-3 cells) for the entry Cn1cc(-c2cc(Cl)cc3cnc(Nc4ccc(S(N)(=O)=O)cc4)nc23)cn1 [Compound 926]
< 5 µM

Please tell me: EC50 of Cc1cc(Nc2ncc3ccc(O)c(C4CCN(C(C)C)CC4)c3n2)ccc1F [Compound 1030] , system PC-3 cells?
5 to 10 µM

Any idea what EC50 came out for CC(C)NC(=O)c1ccc(Nc2ncc3ccc(-c4ccc5c(c4)CCNC5=O)cc3n2)cc1 [Compound 1040] on PC-3 cells?
5 to 10 µM

Form entry - test system: PC-3 cells; read-out: EC50; molecule: CN(C)[C@@H]1CCN(Cc2cccc3cnc(Nc4ccc(S(N)(=O)=O)cc4)nc23)C1 [Compound 938]
5 to 10 µM
